Test system: RPMI-8226 leukemia
Assay: NCI-60 one-dose screen, 48 h (100 = growth as untreated, 0 = no growth, -100 = all killed)
Details: 10 µM unless noted
About 83,000 compounds went through this panel and 20% of them were active in at least one assay; those are over-represented in the sample as a whole.
recordedMetric: growth (%)

> print(dat)
                                    molecule  recordedmetric  measurementunits  quantitativereadout
 1  COc1cc2c(cc1-c1c(C)noc1C)ncc1nc(C3CCOCC3)n([C@H](C)COC(F)F)c12          growth                 %                   18
 2     Cn1ncc2c(=O)nc3c(-c4ccccc4)n[nH]n3c21          growth                 %                  123
 3  C=C1c2nc3ccccc3n2C=C(c2cccc(Cl)c2)N1Cc1ccc(OC)cc1          growth                 %                -15.6
 4  COc1cccc(NC(=O)c2sc3nc(C)c(C(C)=O)cc3c2N)c1          growth                 %                 52.2
 5  O=C1CC[C@H](c2ccc(O)c3c2C(=O)[C@@H]2O[C@@H]2C3=O)c2cccc(O)c21          growth                 %                -3.81
 6  O=C1Nc2cc(-c3ccc(O)cc3)ccc2/C1=C/c1ccc[nH]1          growth                 %                 3.47
 7  N#CN1CC[C@H](C(=O)Nc2cc3cc(C(N)=O)ccc3cn2)C1          growth                 %                 8.19
 8  c1ccc(Cn2cc(-c3nc4ccccc4s3)c3cccnc32)cc1          growth                 %                 99.9
 9  Nc1ccc(-c2cc3c(Nc4ccc(Oc5cccc(C(F)(F)F)c5)c(Cl)c4)ncnc3s2)cc1          growth                 %                 53.1
10  Cc1ccc2c(C(C[N+](=O)[O-])c3ccco3)c(-c3ccccc3)[nH]c2c1 (stereo not given)          growth                 %                 27.4
11  COc1cccc(-c2nc3sccn3c2-c2ccnc(NCCCNS(=O)(=O)c3c(Cl)cccc3Cl)c2)c1          growth                 %                 4.47
12  COc1ccc(-c2cc(-c3ccc(Nc4ccnc5cc(Cl)ccc45)cc3)nc(N3CCOCC3)n2)cc1          growth                 %                -1.81
13  O=C(N=Nc1c(O)[nH]c2ccccc12)c1cc(-c2ccccc2)on1          growth                 %                  112
14  O=C1Nc2c(ccc(Cl)c2Cl)/C1=C\c1ccc(C(F)(F)F)cc1          growth                 %                 62.8
15  O=C1c2ccccc2C(=O)c2c(N=Nc3[nH]c(=S)[nH]c3O)cccc21          growth                 %                -2.62
16  COc1cc(/C=C/c2cc(/C=C/c3ccc(O)c(OC)c3)n(-c3c(C)cccc3C)c(=O)n2)ccc1O          growth                 %                -27.4
17            Clc1ccc2nc3nc4ccc[nH]c4cc3c2c1          growth                 %                 65.5
18  CC(=O)NCC1c2c(n(C)c3c(Cl)c(Cl)ccc23)C(=O)NC1(C)C (stereo not given)          growth                 %                  100
19  CCOC(=O)c1sc2nc(-c3cccc(OC)c3)nc(N3CCOCC3)c2c1C          growth                 %                 87.8
20  O=C(Cc1ccccc1Nc1c(Cl)cccc1Cl)NN1C(=O)/C(=C/c2ccc(Br)cc2)SC1=S          growth                 %                  106
